Exercise: state measured cytotoxicity at 10 µM for each of the molecules provided.
Assay: Toxicity liver stage against HepG2, at 10uM
Type: cell-based
Design: test concentration 10 uM, cell line HepG2-A16-CD81EGFP
Details: human, HepG2-A16-CD81EGFP cells; read-out: INHIBITION

Examples with their reported cytotoxicity at 10 µM follow.
Cn1cc(CCNC(=O)N2CCCc3c(F)cccc32)cn1 ... 14.3%
COCCNC(=O)N1CCN(C(=O)c2nsc3ccc(C)cc23)CC1 ... 7%
Cc1ncc2c(n1)CN(Cc1nc(Cc3ccccc3)no1)CC2 ... -12.4%
CN(C)C(=O)c1cc(-c2ccc(S(C)(=O)=O)cc2)c2cnn(C)c2n1 ... 3.63%
CS(=O)(=O)NCc1nnc2n1CCN(Cc1cccs1)C2 ... -1.57%
O=C(C1CCC1)N1C[C@@H]2CCN(c3cccnc3)C[C@@H]2C1 ... -2.13%
CCCN(Cc1cnn(C)c1)CC1CCCN(S(C)(=O)=O)C1 (centres undefined) ... 15.1%
Cc1nc(CN2CCCC(NCCCc3ccccc3)C2)no1 (centres undefined) ... -3.9%
CC(C)N1CC[C@H]2[C@H](C[C@@H](Cn3cccn3)N2c2nccs2)C1 ... 3.28%
Cc1ncccc1Oc1ncnc(N2CCC(O)(CO)CC2)c1C ... -2.4%

Please state, for each entry, its recorded cytotoxicity at 10 µM.
1. Cc1cccc(C(C(=O)N2CC(c3ccncc3)C2)N(C)C)c1 (centres undefined)
2. CCn1cc(CNc2ccc3nccnc3c2)cn1
3. Cc1cc(C2CCCN2Cc2cc(=O)n(C)c(=O)n2C)on1 (centres undefined)
4. Cc1csc2c(C3CCCN(C(=O)Cn4cncn4)C3)nc(C)n12 (centres undefined)
5. Cn1ccc(CN2CCCC23CCN(Cc2nccn2C)CC3)n1
6. O=C(CN1CCCCC1Cn1cncn1)NCCc1ccsc1 (centres undefined)
7. Cc1nn(C)c(N2CCOCC2)c1CNCc1ccoc1C
8. O=C1CCCN1CCc1noc(-c2ccsc2)n1

Output line:
1: -8.29%; 2: 1.42%; 3: -4.72%; 4: 5.27%; 5: -109%; 6: -6.19%; 7: -8.76%; 8: 8.35%

Fill in cytotoxicity at 10 µM for each of the 2 molecules listed.
1. OC[C@@H]1CCCN1c1ccc(-c2nc(COc3ccccc3)no2)cn1
2. Cc1ccc2cc(CN(C)Cc3nccs3)c(=O)[nH]c2c1

Output line:
1: -8.42%; 2: 2.91%

Give cytotoxicity at 10 µM for all molecules that follow.
1. CC(C)n1cnc(C2CN(C)c3ccc(C(=O)NC4CCCC4)cc32)n1 (centres undefined)
2. O=C(Nc1ccccc1)[C@H]1CN2CCC1C[C@@H]2Cn1cc(CO)nn1 (some centres undefined)
3. COc1ccc(C(=O)O)cc1-c1cccc2c1CCNC2
4. CCc1cnc(C)nc1NCCc1nc(N)cc(O)n1

Output line:
["10.4%", "-2.42%", "0.979%", "-0.264%"]

* * *

Assignment: determine reported cytotoxicity at 10 µM for the given compounds.
Assay: Toxicity liver stage against HepG2, at 10uM
Assay type: cell-based
Parameters: test concentration 10 uM, cell line HepG2-A16-CD81EGFP
Conditions: human, HepG2-A16-CD81EGFP cells; read-out: INHIBITION
Give bare numbers, in %.

Cc1occc1C(=O)N1CCN2C[C@H](Oc3cccnc3)C[C@H]2C1 ... -4.15
CCc1ccc(C2COCCN2C(=O)Nc2ccc(C(N)=O)c(Cl)c2)o1 (stereo not drawn) ... 2.42
COc1ccccc1OCCC(=O)N1CCCC1Cn1cccn1 (stereo not drawn) ... -5.19

I'm hoping you can list cytotoxicity at 10 µM for every compound here, please.
1. CN(C)C(CNCc1nc(-c2ccsc2)no1)c1ccsc1 (stereo not drawn)
2. COc1cccc(Cn2ncnc2CCC(C)N2CCN(C)CC2)c1 (stereo not drawn)
3. COc1ncccc1CNC(=O)N(Cc1ccccc1F)C1CC1

Output line:
1: -1.63; 2: -4.05; 3: 2.99

* * *

Assay: Toxicity liver stage against HepG2, at 10uM
Format: cell-based
Set-up: test concentration 10 uM, cell line HepG2-A16-CD81EGFP
Conditions: human, HepG2-A16-CD81EGFP cells; read-out: INHIBITION
Parameter Measured: cytotoxicity at 10 µM (%)
Numbers only, in %.

Reference set, count: 10
Cc1ccc(-c2nnc(CN3CCN(c4ccccn4)CC3)o2)cc1 ... -5.34
Cc1n[nH]c(C2CN(CC(=O)NCCc3ccsc3)CCO2)n1 (centres undefined) ... -0.524
CCn1cc(NC(=O)NCC(O)c2ccccc2)cn1 (centres undefined) ... -1.14
CCCN1CCc2[nH]nc(C(=O)N3CCNC(=O)C3)c2C1 ... 14.9
CN(C)c1cccc(C(=O)N2CCCSCC2CN2CCCC2)c1 (centres undefined) ... 7.03
CC(=O)N[C@@H]1CN(C2CCN(c3ccccc3F)CC2)C[C@H]1C(C)C ... -14.5
Cc1noc(C)c1CN1CCC2(CC1)NC(=O)CC2c1cnn(C)c1 (centres undefined) ... 5.64
Cc1cc(CNC(=O)N2CCN(Cc3ccccc3)C[C@H]2C)on1 ... -131
CN1CC2(CCN(C(=O)c3ccc4c(=O)n(C)cnc4c3)CC2)CC1=O ... 5.58
CS(=O)(=O)CCN(Cc1cccc(O)c1)C1CCC(O)CC1 (centres undefined) ... 5.38

# per-item lookup of cytotoxicity at 10 µM; items listed below
1. Fc1cnc(N2CCn3c(CN4CCCC4)nnc3C2)nc1
2. O=C(CCCc1nc(C2CC2)no1)N1CCCC(c2ccn[nH]2)C1 (centres undefined)
3. Cc1ccc(S(=O)(=O)NC(=O)CCC2CCCO2)cc1 (centres undefined)
4. CC(=O)NCCCn1ncc2c(C)cccc21
5. O=C(Cn1cccn1)NCC1(c2ccccc2)CC1
6. CC(C)c1sc(Cl)nc1C(=O)N1CCN(c2ccccc2)CC1

Output line:
[-145, 12, -15.7, 9.68, 3.13, -87.6]

For every item in the list below, what is its measured cytotoxicity at 10 µM?
1. CC(C)OC[C@H]1CCC[C@]12CN(C(=O)C1CCOCC1)CCO2
2. Cc1ncsc1CCC(=O)NC1CCN(c2ncccc2C#N)CC1
3. Cc1cc(CNC(=O)NC(C)c2ccc(N3CCOCC3)cc2)no1 (centres undefined)
4. CCN1CC(C(=O)N2CCC(Oc3ccccc3C)CC2)CC1=O (centres undefined)
5. O=C(NC1CC1)c1cn(C2CCN(c3cc(C4CC4)ncn3)CC2)nn1

Output line:
[-99.1, 0.84, -17.4, -12.1, 27.8]

Provide cytotoxicity at 10 µM values for the following items, in order.
1. O=C1CSc2ccc(C(=O)N3CCCC(n4ccnc4)C3)cc2N1 (centres undefined)
2. CCNC(=O)[C@@H]1CCCN1[C@@H](C(=O)NC)c1ccccc1
3. Cc1cnn(CC2CN(Cc3nc4ccccc4nc3C)CCO2)c1 (centres undefined)

Output line:
[-8.44, 7.77, -4.02]

* * *

Assay: Toxicity liver stage against HepG2, at 10uM
Type: cell-based
Parameters: test concentration 10 uM, cell line HepG2-A16-CD81EGFP
Conditions: human, HepG2-A16-CD81EGFP cells; read-out: INHIBITION
Would you mind telling me the reported cytotoxicity at 10 µM of each entry?
Answers are plain numbers, in %.

Study these solved cases before continuing.
CC(CNC(=O)N1CCN(c2cnccn2)CC1)Cc1cccs1 (stereo unspecified) ... 1.7
Cc1ccc(N2CCC3(CC2)CCN(C2CCOC2)CC3)nn1 (stereo unspecified) ... 7.67
Cc1cc(CN(C)C(=O)CN2CCCC2=O)no1 ... 3.05
CC(C)(C)n1cc(C#N)cc1NC(=O)CCS(=O)(=O)C1CCCC1 ... -0.935
Cc1cc(C)c2c(OCC(=O)NC(C)C)nn(C)c2n1 ... -7.25

Input line: // cytotoxicity at 10 µM lookup, key: O=C(CCc1cccs1)N1CCC(N2CCNC2=O)CC1
Output line: 5.37

* * *

Would you kindly list cytotoxicity at 10 µM for each of these molecules?
Experiment: Toxicity liver stage against HepG2, at 10uM
Assay type: cell-based
Design: test concentration 10 uM, cell line HepG2-A16-CD81EGFP
Settings: human, HepG2-A16-CD81EGFP cells; read-out: INHIBITION
Answers are plain numbers, in %.

Dear colleague, could you send me cytotoxicity at 10 µM for each of the items below? Thanks.
1. c1ccc2sc(N3CCN(c4ncnc5c4CCC5)CC3)nc2c1
2. Cc1ccc(C(=O)N2CCC3(CCC(=O)N(CC(N)=O)C3)CC2)cc1
3. CCn1ncc(C(=O)NCCc2nc(-c3ccncc3)n[nH]2)c1C
4. CCN(C(=O)c1cnc(-c2ccc3c(c2)OCO3)s1)C1CC1

Output line:
1. 56.7
2. -0.527
3. 6.87
4. -0.839
